Provide the reported pIC50 of each item.
# Target Under Test: Stromelysin-1 (Homo sapiens, UniProt P08254)
# Sequence (P08254 whole entry): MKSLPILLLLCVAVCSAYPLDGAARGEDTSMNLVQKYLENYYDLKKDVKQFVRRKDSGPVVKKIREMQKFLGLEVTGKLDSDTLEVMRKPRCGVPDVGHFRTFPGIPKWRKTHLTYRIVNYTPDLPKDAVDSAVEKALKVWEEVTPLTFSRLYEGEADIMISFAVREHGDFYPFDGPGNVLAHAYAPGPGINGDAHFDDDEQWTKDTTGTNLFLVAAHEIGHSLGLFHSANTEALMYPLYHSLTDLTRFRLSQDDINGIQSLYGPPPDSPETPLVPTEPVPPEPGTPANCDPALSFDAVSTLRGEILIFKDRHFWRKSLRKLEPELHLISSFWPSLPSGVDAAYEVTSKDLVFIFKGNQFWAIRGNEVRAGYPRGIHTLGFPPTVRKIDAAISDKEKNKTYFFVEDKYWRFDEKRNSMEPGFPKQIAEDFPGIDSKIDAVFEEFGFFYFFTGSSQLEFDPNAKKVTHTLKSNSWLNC
# Procedure Text: In vitro inhibitory activity against recombinant matrix metalloprotease-3 was determined
One number for each entry, as −log10 of the molar value.

Worked cases, pIC50 given:
CCCCN(CCCC)C(=O)P(=O)(O)O    4.52
O=C(N1CCCCC1)P(=O)(O)O    4.05

Required: pIC50, one value per compound below.
1. O=C(NC1CCCCC1)P(=O)(O)O
2. CCNC(=O)P(=O)(O)O [(ETHYLAMINO)CARBONYLPHOSPHONIC ACID]
3. CCCNC(=O)P(=O)(O)O

1: 5.52; 2: 4.00; 3: 4.30

====

# Target Under Test: Stromelysin-1 (Homo sapiens, UniProt P08254)
# Procedure Text: In vitro inhibitory activity against recombinant matrix metalloprotease-3 was determined
Measure: IC50 (µM)
One number for each entry, in µM.

Worked cases, IC50 given:
CCN(CC)C(=O)P(=O)(O)O    30
O=C(NCCc1ccccc1)P(=O)(O)O    90

In the following, a different compound is considered.
Reported IC50 for CNC(=O)P(=O)(O)O was 90

====

# Target Under Test: Interstitial collagenase (Homo sapiens, UniProt P03956)
# Sequence (P03956 whole entry): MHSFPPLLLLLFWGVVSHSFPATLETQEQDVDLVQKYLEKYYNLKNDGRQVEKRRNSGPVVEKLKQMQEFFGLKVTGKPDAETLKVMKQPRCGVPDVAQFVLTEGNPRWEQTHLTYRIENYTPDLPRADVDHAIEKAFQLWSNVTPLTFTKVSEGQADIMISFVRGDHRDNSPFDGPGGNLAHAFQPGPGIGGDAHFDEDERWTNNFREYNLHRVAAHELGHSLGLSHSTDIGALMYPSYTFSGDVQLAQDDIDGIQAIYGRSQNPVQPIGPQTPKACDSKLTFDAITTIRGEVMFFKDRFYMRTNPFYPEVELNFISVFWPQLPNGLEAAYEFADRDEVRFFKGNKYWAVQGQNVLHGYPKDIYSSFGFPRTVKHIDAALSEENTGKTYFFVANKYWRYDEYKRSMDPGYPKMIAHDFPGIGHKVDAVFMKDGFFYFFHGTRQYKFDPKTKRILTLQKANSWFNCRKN
# Procedure Text: In vitro inhibitory activity against recombinant matrix metalloprotease-1 was determined
Provide the reported pIC50 of each item.
Numbers only, as −log10 of the molar value.

Worked cases, pIC50 given:
O=C(NC1CCCCC1)P(=O)(O)O [(CYCLOHEXYLAMINO)CARBONYLPHOSPHONIC ACID]    7.00
O=C(N1CCOCC1)P(=O)(O)O    4.30

Reported pIC50 for O=C(N1CCCCC1)P(=O)(O)O was 4.15

====

# Target Under Test: Matrix metalloproteinase-9 (Homo sapiens, UniProt P14780)
# Sequence (P14780 whole entry): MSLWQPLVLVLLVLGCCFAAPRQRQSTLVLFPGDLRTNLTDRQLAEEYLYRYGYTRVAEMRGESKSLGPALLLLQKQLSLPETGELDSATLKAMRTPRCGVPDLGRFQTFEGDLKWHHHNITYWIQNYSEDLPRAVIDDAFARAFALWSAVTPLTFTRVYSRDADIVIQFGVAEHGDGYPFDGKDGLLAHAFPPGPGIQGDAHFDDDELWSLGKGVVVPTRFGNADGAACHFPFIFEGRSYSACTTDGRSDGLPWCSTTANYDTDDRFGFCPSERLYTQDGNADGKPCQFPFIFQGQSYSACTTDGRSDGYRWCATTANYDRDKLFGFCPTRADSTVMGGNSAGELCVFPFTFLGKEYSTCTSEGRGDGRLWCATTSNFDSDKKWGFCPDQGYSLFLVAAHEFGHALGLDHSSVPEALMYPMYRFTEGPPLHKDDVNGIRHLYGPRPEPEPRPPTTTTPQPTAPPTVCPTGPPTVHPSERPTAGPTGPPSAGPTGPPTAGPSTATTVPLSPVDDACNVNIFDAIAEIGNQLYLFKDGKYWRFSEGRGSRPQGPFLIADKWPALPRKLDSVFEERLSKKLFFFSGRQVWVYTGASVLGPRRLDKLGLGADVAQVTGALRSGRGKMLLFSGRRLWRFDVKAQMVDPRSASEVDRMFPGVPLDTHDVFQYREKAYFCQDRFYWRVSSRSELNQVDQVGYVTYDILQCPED
# Procedure Text: In vitro inhibitory activity against recombinant matrix metalloprotease-9 was determined
pIC50: −log10 of the molar value.
Measure: pIC50

Worked cases, pIC50 given:
CCC(C)NC(=O)P(=O)(O)O (stereo unspecified)    < 4.00
CCC(CC)NC(=O)P(=O)(O)O    < 4.00
O=C(NC1CC1)P(=O)(O)O    < 4.00
CCCCNC(=O)P(=O)(O)O    < 4.00
CCCNC(=O)P(=O)(O)O    4.70

Required: pIC50, one value per compound below.
1. O=C(N1CCOCC1)P(=O)(O)O
2. CCN(CC)C(=O)P(=O)(O)O
3. CC(C)NC(=O)P(=O)(O)O

["< 4.00", "< 4.00", 5.70]

====

# Species on record: Homo sapiens
# Procedure Text: In vitro inhibition of endothelial capillary tube formation by the compound at 50 uM concentration
# Assay type: functional
Measure: inhibition (%)
Numbers only, in %.

Worked cases, inhibition given:
CCCCNC(=O)P(=O)(O)O    20
CCC(C)NC(=O)P(=O)(O)O (stereo not drawn)    20
CC(C)NC(=O)P(=O)(O)O [(ISOPROPYLAMINO)CARBONYLPHOSPHONIC ACID]    55
O=C(NCC1CCCCC1)P(=O)(O)O [CYCLOHEXYLMETHYLCARBAMOYLPHOSPHONIC ACID]    53
O=C(NC1CCCCC1)P(=O)(O)O [(CYCLOHEXYLAMINO)CARBONYLPHOSPHONIC ACID]    50

Required: inhibition, one value per compound below.
1. O=C(NC1CCCCCC1)P(=O)(O)O
2. O=C(NC1CCCC1)P(=O)(O)O
3. O=C(NC1CCCCCCC1)P(=O)(O)O [(CYCLOOCTYLAMINO)CARBONYLPHOSPHONIC ACID]

1: 45; 2: 70; 3: 25

====

# Target Under Test: 72 kDa type IV collagenase (Homo sapiens, UniProt P08253)
# Sequence (P08253 whole entry): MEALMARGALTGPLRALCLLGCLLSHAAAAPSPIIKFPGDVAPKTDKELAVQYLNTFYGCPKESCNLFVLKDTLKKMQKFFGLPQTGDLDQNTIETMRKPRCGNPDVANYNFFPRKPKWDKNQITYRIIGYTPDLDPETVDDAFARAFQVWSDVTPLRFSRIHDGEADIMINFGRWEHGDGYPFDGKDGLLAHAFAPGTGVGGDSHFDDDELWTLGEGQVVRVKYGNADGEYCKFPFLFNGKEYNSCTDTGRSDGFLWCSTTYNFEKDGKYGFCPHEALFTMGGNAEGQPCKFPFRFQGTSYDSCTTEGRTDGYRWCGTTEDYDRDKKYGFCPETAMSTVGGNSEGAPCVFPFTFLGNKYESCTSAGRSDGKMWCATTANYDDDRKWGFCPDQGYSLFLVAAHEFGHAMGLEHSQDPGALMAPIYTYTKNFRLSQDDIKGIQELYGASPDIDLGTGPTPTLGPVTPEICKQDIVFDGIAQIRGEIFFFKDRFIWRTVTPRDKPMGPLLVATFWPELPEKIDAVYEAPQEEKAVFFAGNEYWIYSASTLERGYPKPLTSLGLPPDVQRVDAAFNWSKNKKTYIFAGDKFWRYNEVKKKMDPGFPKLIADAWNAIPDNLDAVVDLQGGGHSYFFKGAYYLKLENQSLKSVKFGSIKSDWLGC
# Procedure Text: In vitro inhibitory activity against recombinant matrix metalloprotease-2 was determined
Provide the reported log10 of IC50 of each item.
Log scale reminder: IC50 in µM, then log10 taken.

Worked cases, log10 of IC50 given:
CCNC(=O)P(=O)(O)O [(ETHYLAMINO)CARBONYLPHOSPHONIC ACID]    0.70
O=C(N1CCCCC1)P(=O)(O)O    0.00
CCOP(=O)(O)C(=O)NC1CCCCC1    1.48

Required: log10 of IC50, one value per compound below.
1. CCCCN(CCCC)C(=O)P(=O)(O)O
2. CCC(CC)NC(=O)P(=O)(O)O

1.70
0.48

Reported log10 of IC50 for CCN(CC)C(=O)P(=O)(O)O was 0.00

====

Provide the reported pIC50 of each item.
# Target Under Test: Stromelysin-1 (Homo sapiens, UniProt P08254)
# Procedure Text: In vitro inhibitory activity against recombinant matrix metalloprotease-3 was determined
Give bare numbers, as −log10 of the molar value.

Worked cases, pIC50 given:
O=C(NCC1CCCCC1)P(=O)(O)O    6.00
O=C(N1CCOCC1)P(=O)(O)O    6.00

In the following, a different molecule is considered.
I looked up CCC(C)NC(=O)P(=O)(O)O (configuration not stated) and its pIC50 for Stromelysin-1 (Homo sapiens, UniProt P08254) was 4.10

====

Provide the reported pIC50 of each item.
# Target Under Test: 72 kDa type IV collagenase (Homo sapiens)
# Procedure Text: In vitro inhibitory activity against recombinant matrix metalloprotease-2 was determined
Numbers only, as −log10 of the molar value.

Worked cases, pIC50 given:
O=C(NC1CCC1)P(=O)(O)O    6.82
CCC(C)NC(=O)P(=O)(O)O (stereo not drawn)    5.52
O=C(NC1CCCCCCC1)P(=O)(O)O    6.00
CCCCNC(=O)P(=O)(O)O    5.70
O=C(NCCc1ccccc1)P(=O)(O)O    4.70
CCCNC(=O)P(=O)(O)O    6.52
O=C(NC1CCCCCC1)P(=O)(O)O    5.40
O=C(NC1CC1)P(=O)(O)O    6.30
CC(C)CCNC(=O)P(=O)(O)O.NC1CCCCC1    4.52
CC(C)NC(=O)P(=O)(O)O    6.00

In the following, a different compound is considered.
Reported pIC50 for CNC(=O)P(=O)(O)O was 7.70

====

Provide the reported pIC50 of each item.
# Target Under Test: Neutrophil collagenase (Homo sapiens, UniProt P22894)
# Sequence (P22894 whole entry): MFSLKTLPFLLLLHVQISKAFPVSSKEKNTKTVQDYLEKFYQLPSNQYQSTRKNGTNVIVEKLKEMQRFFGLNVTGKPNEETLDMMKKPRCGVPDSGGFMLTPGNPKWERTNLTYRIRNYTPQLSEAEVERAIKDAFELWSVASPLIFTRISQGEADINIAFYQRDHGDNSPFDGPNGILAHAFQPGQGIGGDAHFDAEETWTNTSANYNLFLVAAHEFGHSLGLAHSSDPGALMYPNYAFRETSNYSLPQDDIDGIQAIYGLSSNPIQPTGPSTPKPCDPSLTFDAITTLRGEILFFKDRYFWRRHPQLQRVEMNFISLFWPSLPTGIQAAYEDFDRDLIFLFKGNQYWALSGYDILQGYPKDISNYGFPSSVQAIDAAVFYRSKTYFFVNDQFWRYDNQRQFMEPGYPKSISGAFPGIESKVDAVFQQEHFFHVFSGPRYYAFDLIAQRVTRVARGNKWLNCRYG
# Procedure Text: In vitro inhibitory activity against recombinant matrix metalloprotease-8 was determined
Numbers only, as −log10 of the molar value.

CCN(CC)C(=O)P(=O)(O)O [(DIETHYLAMINO)CARBONYLPHOSPHONIC ACID]    4.15

Required: pIC50, one value per molecule below.
1. CC(C)CNC(=O)P(=O)(O)O.NC1CCCCC1
2. CCC(CC)NC(=O)P(=O)(O)O
3. CCNC(=O)P(=O)(O)O [(ETHYLAMINO)CARBONYLPHOSPHONIC ACID]

6.00
5.00
4.52

Required: pIC50, one value per molecule below.
1. O=C(NCC1CCCCC1)P(=O)(O)O [CYCLOHEXYLMETHYLCARBAMOYLPHOSPHONIC ACID]
2. CCCCN(CCCC)C(=O)P(=O)(O)O [(DIBUTYLAMINO)CARBONYLPHOSPHONIC ACID]
3. O=C(NC1CCC1)P(=O)(O)O [(CYCLOBUTYLAMINO)CARBONYLPHOSPHONIC ACID]
4. O=C(NC1CC1)P(=O)(O)O
5. O=C(N1CCOCC1)P(=O)(O)O

4.10
4.05
7.40
6.70
4.52

Required: pIC50, one value per molecule below.
1. CC(C)CCNC(=O)P(=O)(O)O.NC1CCCCC1
2. CNC(=O)P(=O)(O)O [(METHYLAMINO)CARBONYLPHOSPHONIC ACID]
3. O=C(NC1CCCCCCC1)P(=O)(O)O [(CYCLOOCTYLAMINO)CARBONYLPHOSPHONIC ACID]

1: 4.30; 2: 4.70; 3: 5.40

Reported pIC50 for CC(C)NC(=O)P(=O)(O)O [(ISOPROPYLAMINO)CARBONYLPHOSPHONIC ACID] was 4.30
